protein stability index: recorded values
- assay-comment: protein stability index of a GFP-peptide fusion (yeast GPS) (PSI 1-4); higher = more stable; sorted into four equal gates, so the index is relative within each strain
- condition-summary: ubr1∆

| sequence-content | protein stability index |
| --- | --- |
| ASLADVMSIESLVEVVF [FAS1] | 2.97 |
| TAVLSTTARAKARAKKT [RPN2] | 3.19 |
| DFKTDVDEPMTSAVELG [YJL039C/NUP192] | 2.85 |
| YDALLSINVHSNNITSG [RET1] | 2.76 |
| DDEPTTPAELVGKFLGY [FAS1] | 3.2 |
| MVEWLESRSFSPIPFPP [PRP8] | 2.9 |
| TGAGKGSIGAEVLQGLL [FAS2] | 2.96 |

====

- assay-comment: protein stability index of a GFP-peptide fusion (yeast GPS) (PSI 1-4); higher = more stable; sorted into four equal gates, so the index is relative within each strain
- condition-summary: san1∆
just bin them by protein stability index: bottom end: < 2; midrange: ≥ 2 and < 3; top end: ≥ 3

| sequence-content | class-assignment |
| --- | --- |
| EATREVFGISKTSSGSY [ITC1] | top end |
| KRLNFSFVGDYMHDTEL [GRR1] | midrange |
| SLFSHRKHTRGDVSSGL [BRN1] | top end |
| IHALAAKLLQENDTTLV [FAS1] | midrange |
| TTILSFSSPAALMKTLI [NUT1] | midrange |
| LLDVKLAIDNMYILGMC [YCG1] | bottom end |
| PIAASTDLPIETAAMAS [RPN1] | bottom end |
| VLSINPDMYERKVENIR [MED7] | midrange |
| FGDTKSESKQLGNTSSV [SWI3] | top end |
| LVFCKHITSVPISAVLR [GRR1] | bottom end |
| LYNDADVLTLENIQEGT [CDC53] | top end |
| FEDQVTNILTKVDINAD [PRP28] | top end |
| KKHTKKFKRHHSDRYHR [RPL32] | midrange |
| AYPGKLICPQYGTENKD [CSL4] | bottom end |
| DEDLLDTQTFSVLLQQL [YGL172W/NUP49] | bottom end |
| NVIITGSTSLIEGMEQR [ARP7] | midrange |
| IVQAKEPNLAAQQDSTN [ECM29] | midrange |
| GVARNFHFAIEQISNNS [SIN4] | midrange |
| MEIVANAKESNYTDLIW [MED1] | top end |
| YPNEVLKFNHGNYSHLM [REC8] | midrange |
| IDMLPMLLGTDLCSLKP [DIS3] | midrange |
| SKFNNADDVFTGTGLQD [RPC31] | top end |
| GLSIHPTQITQYTQRLS [SRP68] | bottom end |
| QAAGGLSIRLTNQLKSL [RPN8] | midrange |
| FASNKKINDESSIDKKS [YML103C/NUP188] | midrange |
| LEKKGFSEVYEYNRLKV [LIN1] | top end |
| KQDEKKSSELELQKLVH [SMC2] | top end |
| ARQQVAQQLRNQQQQQQ [GAL11] | midrange |
| DTFDGSDLRVLSGSISE [FAS1] | bottom end |
| RGVDAGKGNTFEKVGSH [RPN14] | top end |
| NNNNSNNHNMRNNSNNK [SWI1] | midrange |
| MSIVFGDKFSEDFRIQF [UBP6] | midrange |
| DGDASKPAFSFGAKPDE [YJL041W/NSP1] | top end |
| EKNYDRKEPPATVEECV [PRE6] | top end |
| VDIDDPDMMVDSFTMPN [SNF2] | midrange |
| SLEDKILRMGAFRTIES [RRI1] | bottom end |
| KVLQLLRLTRINSGTFV [RPL7A] | bottom end |
| SSTDIPSYTHVLISKLS [RRI1] | midrange |
| IFSFHQDSIFQRIIADL [SRB8] | midrange |
| SYDFLPLSNIKALLFFN [RPN12] | bottom end |
| KSTYRTPNFDDVLKENN [RIP1] | bottom end |
| YVNDVAIYNNPTRIRTK [RRI2] | midrange |
| YGPPGTGKTLLARACAA [RPT5] | midrange |
| NISIITLELESFLEGSK [RGR1] | midrange |
| PPPGLDELETKAEKKVE [PRP8] | top end |
| INIQSFKDVEHISFNFS [BRR2] | midrange |
| DVKISNDFFDNGDNLYG [RPN4] | midrange |
| PGTNGKVKKPLKYLSVE [PRE7] | top end |
| DILLCYQKLFSQFINDH [SRB8] | midrange |
| NLSSLIVEINNVSNTFN [YJL041W/NSP1] | midrange |
| VPPINCIFNFLQQQTPV [SME1] | bottom end |
| MKVFVTKHLMPQDLTFN [RPB7] | midrange |

====

protein stability index: recorded values
- assay-comment: protein stability index of a GFP-peptide fusion (yeast GPS) (PSI 1-4); higher = more stable; sorted into four equal gates, so the index is relative within each strain
- condition-summary: doa10∆

| sequence-content | protein stability index |
| --- | --- |
| PIDNNIIFASTKLGFTF [SNU114] | 2.63 |
| DKFPYKKLELPKYIDEL [SWP82] | 2.73 |
| AQNVPMNIIQQQQQQNT [GAL11] | 2.48 |
| RKRHQRALKVRNAQAQR [RPS6A] | 3.04 |
| VPLSDNAIIEANLGKYG [RPL7A] | 2.29 |
| NTSAIQETASPLSQDEL [YIL149C/MLP2] | 1.23 |
| SKVVIDSIIDNIVKLCF [IRR1] | 2.75 |

====

protein stability index: recorded values
- assay-comment: protein stability index of a GFP-peptide fusion (yeast GPS) (PSI 1-4); higher = more stable; sorted into four equal gates, so the index is relative within each strain
- condition-summary: pdr5∆
experimental-readout: protein stability index

| sequence-content | result |
| --- | --- |
| KWPEYVRVQRQKKILSI [RPL8A] | 1.5 |
| GGSATARHKKKVENLDY [YML031W/NDC1] | 3.38 |
| GRDKHALSLLYHLLNYD [SSN3] | 2.92 |
| GVARNFHFAIEQISNNS [SIN4] | 2.13 |
| KAPLEDDDKKPDDDKIV [RPT1] | 3.11 |
| FKELCYENKDNLTAGII [PRE3] | 2.95 |
| STRLKKACKTADKLVNV [SRP68] | 3.26 |

====

- assay-comment: protein stability index of a GFP-peptide fusion (yeast GPS) (PSI 1-4); higher = more stable; sorted into four equal gates, so the index is relative within each strain
- condition-summary: doa10∆
protein stability index: recorded values
experimental-readout: protein stability index

| sequence-content | result |
| --- | --- |
| LEHDVEYRPFSKKVLEC [DIS3] | 3.4 |
| TFRLPKTLKLARAPKYA [RPL25] | 1.69 |
| NRTLYELADLPKLKRIG [GRR1] | 2.88 |
| TGAGKGSIGAEVLQGLL [FAS2] | 3.48 |
| GYKMIPGAKPLQVGDVV [FAS1] | 2.43 |
| ELLSSLEGKGSLEEIIA [RPP2B] | 2.27 |
| LSGLAQRKTNGASNGDD [BRN1] | 3.15 |
| PAFKPTEKKFTKEQYAA [RPL5] | 2.93 |
| SSLSFGPENALNVYHYF [YJL039C/NUP192] | 1.94 |
| EQKLIDQHVINILWAIY [YCS4] | 1.87 |
| CANKYMTTVSGRDAFHL [RPL10] | 2.24 |
| ENHNGQSISNENDVKPI [SWI3] | 2.07 |
| DKLSGCYAPRPSAGPHK [RPS4A] | 2.2 |
| WKQDLTKEEAIKLASDA [PUP1] | 2.81 |

====

- assay-comment: protein stability index of a GFP-peptide fusion (yeast GPS) (PSI 1-4); higher = more stable; sorted into four equal gates, so the index is relative within each strain
- condition-summary: san1∆
Response key: criterion met means protein stability index >= 3; criterion not met means protein stability index < 3.

| sequence-content | class-assignment |
| --- | --- |
| SDGEDGHIPWHILAVKK [SSN2] | criterion met |
| FYGVLDQGNGWLYVYET [RPN6] | criterion not met |
| PGTTSTGNNNNIATQQN [GAL11] | criterion not met |
| VTRTHGNSGVVRATFRN [RPL33A] | criterion not met |
| LKEILNVAKNMKTPSLT [RPO21] | criterion met |
| SNKILVYESEMEQCKQR [YIL149C/MLP2] | criterion not met |
| TYDENDDFFKELAKEAK [ESC2] | criterion not met |
| NYTDLIWFPEDFISPEL [MED1] | criterion not met |
| VTVHSLTGEATANALPL [RPL4A] | criterion not met |
| SLHILMIFWNDICQIDT [SRB8] | criterion not met |
| AEWSLVRIYSGLLKRGD [SNU114] | criterion met |
| VEISLVNGAKNLVVSGP [FAS1] | criterion not met |
| KSGRINGFHGRLGDLGV [SMC4] | criterion met |
